# target.desc: human CD33 Q24R (human, UniProt P20138 18-364)
# Sequence (P20138 18-364 Q24R limits assumed): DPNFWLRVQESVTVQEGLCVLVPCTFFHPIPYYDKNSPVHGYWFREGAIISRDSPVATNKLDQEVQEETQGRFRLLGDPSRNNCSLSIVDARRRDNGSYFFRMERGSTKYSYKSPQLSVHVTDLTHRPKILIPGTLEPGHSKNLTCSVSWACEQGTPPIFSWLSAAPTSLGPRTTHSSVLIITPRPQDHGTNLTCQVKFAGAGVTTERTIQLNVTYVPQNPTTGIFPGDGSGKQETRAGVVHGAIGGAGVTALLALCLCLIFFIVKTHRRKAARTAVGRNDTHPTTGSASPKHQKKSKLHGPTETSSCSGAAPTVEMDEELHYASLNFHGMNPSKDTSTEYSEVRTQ
# assay.info: flow cytometry, mutant on cells, IgG
attribute.measured: Mean % WT Binding
Write down the value, and be sure its unit follows.

**Q:** Fill in the blank: the reported Mean % WT Binding of Refmab #2 (antibody, human IgG1, V domains shown, Tested in IgG format; human IgG1 Fc silent (PG-LALA)) VH: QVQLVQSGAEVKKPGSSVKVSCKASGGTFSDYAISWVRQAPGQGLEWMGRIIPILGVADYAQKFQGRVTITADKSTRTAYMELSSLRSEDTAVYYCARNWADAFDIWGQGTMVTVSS VL: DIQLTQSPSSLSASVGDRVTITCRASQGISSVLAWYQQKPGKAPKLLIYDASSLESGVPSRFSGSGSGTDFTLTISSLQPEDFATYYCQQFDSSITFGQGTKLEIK is ____.
**A:** 96.8 % WT binding

***
**Q:** Fill in the blank: the reported Mean % WT Binding of Refmab #4 (antibody, human IgG1, V domains shown, Tested in IgG format; human IgG1 Fc silent (PG-LALA)) VH: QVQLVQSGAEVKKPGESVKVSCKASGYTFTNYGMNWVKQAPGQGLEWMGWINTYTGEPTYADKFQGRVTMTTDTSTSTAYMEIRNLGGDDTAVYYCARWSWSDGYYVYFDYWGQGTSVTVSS VL: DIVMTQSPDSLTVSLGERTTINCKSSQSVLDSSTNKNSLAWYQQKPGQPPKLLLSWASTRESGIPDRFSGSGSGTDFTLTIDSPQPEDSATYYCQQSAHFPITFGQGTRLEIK is ____.
**A:** 98.6 % WT binding

**Q:** Fill in the blank: the reported Mean % WT Binding of Refmab #3 (antibody, human IgG1, V domains shown, Tested in IgG format; human IgG1 Fc silent (PG-LALA)) VH: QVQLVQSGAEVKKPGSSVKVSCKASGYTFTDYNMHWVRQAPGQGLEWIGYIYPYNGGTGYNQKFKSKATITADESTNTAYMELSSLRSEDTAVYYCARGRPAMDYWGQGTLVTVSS VL: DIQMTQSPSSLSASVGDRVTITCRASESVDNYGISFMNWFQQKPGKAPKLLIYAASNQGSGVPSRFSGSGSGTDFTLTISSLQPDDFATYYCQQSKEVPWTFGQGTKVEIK is ____.
**A:** 74.6 % WT binding

**Q:** Fill in the blank: the reported Mean % WT Binding of Refmab #1 (antibody, human IgG1, V domains shown, Tested in IgG format; human IgG1 (Absolute Antibody hP67.6, Cat. No. Ab00283-10.0); also called hP67.6) VH: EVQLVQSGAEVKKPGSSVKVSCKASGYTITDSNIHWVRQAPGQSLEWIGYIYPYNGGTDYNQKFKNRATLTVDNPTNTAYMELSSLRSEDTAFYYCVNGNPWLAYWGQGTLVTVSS VL: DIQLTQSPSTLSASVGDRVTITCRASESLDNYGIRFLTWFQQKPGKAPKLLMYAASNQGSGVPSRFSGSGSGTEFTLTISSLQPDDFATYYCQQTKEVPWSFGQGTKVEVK is ____.
**A:** 95.1 % WT binding
